Source listed as patent US20250197387A1.

- Tested System: BCL-XL (Homo sapiens)
- Construct: endogenous in cells; host or cells: MOLT-4
- Assay Info: BCL-XL degradation assay, western blot in MOLT-4 cells, 16 h
- Assay type: cell-based
- Experimental Parameters: western blot, MOLT-4 cells, 16 h; read-out: Bcl-xL WB in MOLT-4 degradation 16 h: Average Dmax %
Dmax values for the compounds below.
Quantity: Dmax

Item Smiles: Cc1ncsc1-c1ccc([C@H](C)NC(=O)[C@@H]2C[C@@H](O)CN2C(=O)[C@@H](NC(=O)[C@H]2CC[C@H](CC(=O)N3CCN(CC[C@H](CSc4ccccc4)Nc4ccc(S(=O)(=O)NC(=O)c5ccc(N6CCN(CC7=C(c8ccc(Cl)cc8)CCC(C)(C)C7)CC6)cc5)cc4S(=O)(=O)C(F)(F)F)CC3)CC2)C(C)(C)C)cc1
Tested System: BCL-XL (Homo sapiens)
Result Value: > 75%
//
Item Smiles: Cc1ncsc1-c1ccc([C@H](C)NC(=O)[C@@H]2C[C@@H](O)CN2C(=O)[C@@H](NC(=O)CCCCCS(=O)(=O)NC(=O)c2nc(N3CCc4cccc(C(=O)Nc5nc6ccccc6s5)c4C3)sc2CCCOc2ccc(C#CCN(C)C)cc2F)C(C)(C)C)cc1
Tested System: BCL-XL (Homo sapiens)
Result Value: > 75%
//
Item Smiles: Cc1ncsc1-c1ccc(CNC(=O)[C@@H]2C[C@@H](O)CN2C(=O)[C@@H](NC(=O)C2(F)CC2)C(C)(C)C)c(OCCN2CCC(NC(=O)c3nc(N4CCc5cccc(C(=O)Nc6nc7ccccc7s6)c5C4)ccc3-c3cnn(CC4CCCCC4)c3C)CC2)c1
Tested System: BCL-XL (Homo sapiens)
Result Value: 50 to 75%
//
Item Smiles: Cc1ncsc1-c1ccc([C@H](C)NC(=O)[C@@H]2C[C@@H](O)CN2C(=O)[C@@H](NC(=O)CCCCCCC(=O)N2CCN(C[C@]3(C)CCC(c4ccc(Cl)cc4)=C(CN4CCN(c5ccc(C(=O)NS(=O)(=O)c6ccc(N[C@H](CCN7CCOCC7)CSc7ccccc7)c(S(=O)(=O)C(F)(F)F)c6)cc5)CC4)C3)CC2)C(C)(C)C)cc1
Tested System: BCL-XL (Homo sapiens)
Result Value: > 75%

###

DC50 values for the molecules below.
- Tested System: BCL-XL (Homo sapiens, UniProt Q07817)
- Construct: endogenous in cells; host or cells: MOLT-4
- Sequence (Q07817 whole entry): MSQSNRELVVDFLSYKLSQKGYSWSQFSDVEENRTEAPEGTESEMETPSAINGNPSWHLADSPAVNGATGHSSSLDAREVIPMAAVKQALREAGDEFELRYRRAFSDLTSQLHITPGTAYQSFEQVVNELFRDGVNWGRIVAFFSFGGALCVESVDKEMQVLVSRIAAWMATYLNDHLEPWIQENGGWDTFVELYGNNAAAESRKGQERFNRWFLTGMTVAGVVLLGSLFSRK
- Assay Info: BCL-XL degradation assay, western blot in MOLT-4 cells, 16 h
- Assay type: cell-based
- Experimental Parameters: western blot, MOLT-4 cells, 16 h; read-out: Bcl-xL WB in MOLT-4 degradation 16 h: Mean external-Abs DC50
Quantity: DC50

Molecule: Cc1ncsc1-c1ccc([C@H](C)NC(=O)[C@@H]2C[C@@H](O)CN2C(=O)C(c2cc(OC3CCN(CCNC(=O)c4nc(N5CCc6cccc(C(=O)Nc7nc8ccccc8s7)c6C5)ccc4-c4cnn(CC5CCCCC5)c4C)CC3)no2)C(C)C)cc1 (stereo partly drawn) [I-234]
Tested System: BCL-XL (Homo sapiens, UniProt Q07817)
Result Value: 10 to 100 nM
--
Molecule: Cc1ncsc1-c1ccc(CNC(=O)[C@@H]2C[C@@H](O)CN2C(=O)[C@@H](NC(=O)C2(F)CC2)C(C)(C)C)c(OCCCNC(=O)c2nc(N3CCc4cccc(C(=O)Nc5nc6ccccc6s5)c4C3)ccc2-c2cnn(CC3CCCCC3)c2C)c1 [I-200]
Tested System: BCL-XL (Homo sapiens, UniProt Q07817)
Result Value: 100 to 500 nM
--
Molecule: Cc1ncsc1-c1ccc(CNC(=O)[C@@H]2C[C@@H](O)CN2C(=O)[C@@H](NC(=O)C2(F)CC2)C(C)(C)C)c(OCCCC(=O)N(C)CC#Cc2ccc(OCCCc3sc(N4CCc5cccc(C(=O)Nc6nc7ccccc7s6)c5C4)nc3C(=O)O)c(F)c2)c1 [I-6]
Tested System: BCL-XL (Homo sapiens, UniProt Q07817)
Result Value: 100 to 500 nM
--
Molecule: Cc1ncsc1-c1ccc(CNC(=O)[C@@H]2C[C@@H](O)CN2C(=O)[C@@H](NC(=O)C2(F)CC2)C(C)(C)C)c(OCC(=O)N2CCN(CC[C@H](CSc3ccccc3)Nc3ccc(S(=O)(=O)NC(=O)c4ccc(N5CCN(CC6=C(c7ccc(Cl)cc7)CCC(C)(C)C6)CC5)cc4)cc3S(=O)(=O)C(F)(F)F)CC2)c1 [I-387]
Tested System: BCL-XL (Homo sapiens, UniProt Q07817)
Result Value: 10 to 100 nM
--
Molecule: Cc1cc(N(CCN(C)C(=O)CCCCCOc2cc(-c3scnc3C)ccc2CNC(=O)[C@@H]2C[C@@H](O)CN2C(=O)[C@@H](NC(=O)C2(F)CC2)C(C)(C)C)c2ccc(-c3cnn(CC4CCCCC4)c3C)c(C(=O)O)n2)nnc1Nc1nc2ccccc2s1 [I-103]
Tested System: BCL-XL (Homo sapiens, UniProt Q07817)
Result Value: > 1000 nM
--
Molecule: Cc1ncsc1-c1ccc([C@H](C)NC(=O)[C@@H]2C[C@@H](O)CN2C(=O)[C@@H](NC(=O)CCCS(=O)(=O)NC(=O)c2nc(N3CCc4cccc(C(=O)Nc5nc6ccccc6s5)c4C3)ccc2-c2cnn(CC34CC5CC(CC(C5)C3)C4)c2C)C(C)(C)C)cc1 [I-117]
Tested System: BCL-XL (Homo sapiens, UniProt Q07817)
Result Value: < 10 nM
--
Molecule: Cc1ncsc1-c1ccc([C@H](C)NC(=O)[C@@H]2C[C@@H](O)CN2C(=O)[C@@H](NC(=O)CCCC(=O)N2CCN(CC[C@H](CSc3ccccc3)Nc3ccc(S(=O)(=O)NC(=O)c4ccc(N5CCN(CC6=C(c7ccc(Cl)cc7)CCC(C)(C)C6)CC5)cc4)cc3S(=O)(=O)C(F)(F)F)CC2)C(C)(C)C)cc1 [I-86]
Tested System: BCL-XL (Homo sapiens, UniProt Q07817)
Result Value: > 1000 nM
--
Molecule: Cc1ncsc1-c1ccc([C@H](C)NC(=O)[C@@H]2C[C@@H](O)CN2C(=O)[C@@H](NC(=O)N2CC3(CCC(C(=O)N4CCN(CC[C@H](CSc5ccccc5)Nc5ccc(S(=O)(=O)NC(=O)c6ccc(N7CCN(CC8=C(c9ccc(Cl)cc9)CCC(C)(C)C8)CC7)cc6)cc5S(=O)(=O)C(F)(F)F)CC4)CC3)C2)C(C)(C)C)cc1 [I-125]
Tested System: BCL-XL (Homo sapiens, UniProt Q07817)
Result Value: > 1000 nM
--
Molecule: C#Cc1ccc([C@H](CO)NC(=O)[C@@H]2C[C@@H](O)CN2C(=O)[C@@H](NC(=O)CCc2ccc(S(=O)(=O)NC(=O)c3nc(N4CCc5cccc(C(=O)Nc6nc7cccnc7s6)c5C4)ccc3-c3cnn(CC4CCCCC4)c3C)cc2)C(C)(C)C)cc1 [I-205]
Tested System: BCL-XL (Homo sapiens, UniProt Q07817)
Result Value: < 10 nM
--
Molecule: Cc1ncsc1-c1ccc(CNC(=O)[C@@H]2C[C@@H](O)CN2C(=O)[C@@H](NC(=O)C2(F)CC2)C(C)(C)C)c(OCCN2CCC(NC(=O)c3nc(N4CCc5cccc(C(=O)Nc6nc7ccccc7s6)c5C4)ccc3-c3cnn(CC4CCCCC4)c3C)CC2)c1 [I-191]
Tested System: BCL-XL (Homo sapiens, UniProt Q07817)
Result Value: 100 to 500 nM
--
Molecule: Cc1ncsc1-c1ccc([C@H](C)NC(=O)[C@@H]2C[C@@H](O)CN2C(=O)[C@H](NC(=O)CCCCCCCS(=O)(=O)NC(=O)c2nc(N3CCc4cccc(C(=O)Nc5nc6ccccc6s5)c4C3)ccc2-c2cnn(CC(C)C)c2C)C(C)(C)C)cc1 [I-179]
Tested System: BCL-XL (Homo sapiens, UniProt Q07817)
Result Value: 10 to 100 nM
--
Molecule: Cc1cc(N(C)c2ccc(-c3cnn(CC4CCCCC4)c3C)c(C(=O)NS(=O)(=O)CCCCC(=O)N[C@H](C(=O)N3C[C@H](O)C[C@H]3C(=O)N[C@@H](C)c3ccc(-c4scnc4C)cc3)C(C)(C)C)n2)nnc1Nc1nc2ccccc2s1 [I-353]
Tested System: BCL-XL (Homo sapiens, UniProt Q07817)
Result Value: 10 to 100 nM
--
Molecule: Cc1ncsc1-c1ccc([C@H](CC(=O)NCCCCCNC(=O)c2nc(N3CCc4cccc(C(=O)Nc5nc6ccccc6s5)c4C3)ccc2-c2cnn(CC3CCCCC3)c2C)NC(=O)[C@@H]2C[C@@H](O)CN2C(=O)[C@@H](NC(=O)C2(F)CC2)C(C)(C)C)cc1 [I-199]
Tested System: BCL-XL (Homo sapiens, UniProt Q07817)
Result Value: 10 to 100 nM
--
Molecule: Cc1ncsc1-c1ccc(CNC(=O)[C@@H]2C[C@@H](O)CN2C(=O)[C@@H](NC(=O)C2(F)CC2)C(C)(C)C)c(OCCCC(=O)N(C)CC#Cc2cccc(F)c2OCCCc2sc(N3CCc4cccc(C(=O)Nc5nc6ccccc6s5)c4C3)nc2C(=O)O)c1 [I-18]
Tested System: BCL-XL (Homo sapiens, UniProt Q07817)
Result Value: > 1000 nM
--
Molecule: Cc1cc(N(C)c2ccc(-c3cnn(CC4CCCCC4)c3C)c(C(=O)NS(=O)(=O)CCCCCOc3cc(-c4scnc4C)ccc3CNC(=O)[C@@H]3C[C@@H](O)CN3C(=O)[C@@H](NC(=O)C3(F)CC3)C(C)(C)C)n2)nnc1Nc1nc2ccccc2s1 [I-188]
Tested System: BCL-XL (Homo sapiens, UniProt Q07817)
Result Value: > 1000 nM
